Each item that follows carries a reported Relative Binding Affinity SSTR2.
target desc: SSTR2 (Rattus norvegicus)
Construct: host or cells: AR42J cells
Sequence (P30680 whole entry): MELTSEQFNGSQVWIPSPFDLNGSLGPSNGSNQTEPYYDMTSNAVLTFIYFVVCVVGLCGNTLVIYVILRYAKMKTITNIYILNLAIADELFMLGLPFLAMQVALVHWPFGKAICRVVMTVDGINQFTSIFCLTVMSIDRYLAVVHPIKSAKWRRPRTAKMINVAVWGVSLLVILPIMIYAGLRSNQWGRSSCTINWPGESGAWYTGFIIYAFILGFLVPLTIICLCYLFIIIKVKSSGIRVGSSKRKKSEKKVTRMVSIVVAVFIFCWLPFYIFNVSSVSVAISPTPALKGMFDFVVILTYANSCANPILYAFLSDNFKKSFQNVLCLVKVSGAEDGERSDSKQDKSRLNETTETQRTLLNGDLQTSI
procedure details: Competitive cell-binding assay on AR42J cells with 125I-C1 as competitive ligand
test conditions: based on mean IC50, C-1 = 1.00
Keep it simple and answer with nothing but the number.

C[C@@H](O)[C@H](NC(=O)[C@@H]1CSSC[C@H](NC(=O)[C@@H](Cc2ccccc2)NC(=O)COCCOCCNC(=O)[C@H](CCCCNC(=O)[C@H](CCC(=O)O)NC(=O)c2cccc(NC(=O)N[C@@H]3CN(C4CCCCC4)c4ccccc4N(CC(=O)C(C)(C)C)C3=O)c2)NC(=O)CN2CCN(CC(=O)O)CCN(CC(=O)O)CCN(CC(=O)O)CC2)C(=O)N[C@@H](Cc2ccc(O)cc2)C(=O)N[C@H](Cc2c[nH]c3ccccc23)C(=O)N[C@@H](CCCCN)C(=O)N[C@@H]([C@@H](C)O)C(=O)N1)C(=O)O [Compound I-27, DOTA-K(-E-Z360)-OEG-f[CYwKTC]T-OH] = 0.51

Please examine the following record next.
**Q:** Name the recorded Relative Binding Affinity SSTR2 of the item C[C@@H](O)[C@H](NC(=O)[C@@H]1CSSC[C@H](NC(=O)[C@@H](Cc2ccccc2)NC(=O)COCCOCCNC(=O)COCCOCCNC(=O)[C@H](CCCCNC(=O)c2cccc(NC(=O)N[C@@H]3CN(C4CCCCC4)c4ccccc4N(CC(=O)C(C)(C)C)C3=O)c2)NC(=O)CN2CCN(CC(=O)O)CCN(CC(=O)O)CCN(CC(=O)O)CC2)C(=O)N[C@@H](Cc2ccc(O)cc2)C(=O)N[C@H](Cc2c[nH]c3ccccc23)C(=O)N[C@@H](CCCCN)C(=O)N[C@@H]([C@@H](C)O)C(=O)N1)C(=O)O [Compound I-39, DOTA-K(Z360)-OEG-OEG-f[CYwKTC]T-OH] in your answer.
**A:** 7.67

====

Each item that follows carries a reported tissue uptake at 24 h.
procedure details: in vivo
test conditions: BALB/c nude, mouse, in vivo, iv, total radioactivity, uptake Liver
Write down the numeric answer in %ID/g and omit the unit.

C[C@@H](O)[C@H](NC(=O)[C@@H]1CSSC[C@H](NC(=O)[C@@H](Cc2ccccc2)NC(=O)COCCOCCNC(=O)[C@H](CCCCNC(=O)CC[C@H](NC(=O)CNC(=O)c2cccc(NC(=O)N[C@@H]3CN(C4CCCCC4)c4ccccc4N(CC(=O)C(C)(C)C)C3=O)c2)C(=O)O)NC(=O)CN2CCN(CC(=O)O)CCN(CC(=O)O)CCN(CC(=O)O)CC2)C(=O)N[C@@H](Cc2ccc(O)cc2)C(=O)N[C@H](Cc2c[nH]c3ccccc23)C(=O)N[C@@H](CCCCN)C(=O)N[C@@H]([C@@H](C)O)C(=O)N1)C(=O)O = 2.86

Please examine the following record next.
**Q:** Name the recorded tissue uptake at 24 h of the item C[C@@H](O)[C@H](NC(=O)[C@@H]1CSSC[C@H](NC(=O)[C@@H](Cc2ccccc2)NC(=O)[C@H](CCCCNC(=O)c2cccc(NC(=O)N[C@@H]3CN(C4CCCCC4)c4ccccc4N(CC(=O)C(C)(C)C)C3=O)c2)NC(=O)COCCOCCNC(=O)COCCOCCNC(=O)CN2CCN(CC(=O)O)CCN(CC(=O)O)CCN(CC(=O)O)CC2)C(=O)N[C@@H](Cc2ccc(O)cc2)C(=O)N[C@H](Cc2c[nH]c3ccccc23)C(=O)N[C@@H](CCCCN)C(=O)N[C@@H]([C@@H](C)O)C(=O)N1)C(=O)O [Compound I-41, DOTA-OEG-OEG-K(Z360)-f[CYwKTC]T-OH] in your answer.
**A:** 1.5
